Data provenance: paper PMC10397247

# Target: T1, 4H3638-bH
# T1 chain: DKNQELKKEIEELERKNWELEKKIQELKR
# Experiment notes: two-hybrid library CCNG1;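 also: natural log of median RNA to DNA barcode read ratio; higher means stronger binding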
Exam item: assign 1.0 to entries whose interaction score is below -0.2 and 0.0 to entries at or above -0.2. Note that a value of exactly -0.2 receives 0.0.

Illustrative cases are given below, each with its answer.
Binder: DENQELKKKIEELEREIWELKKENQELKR [4H1804-bH]
Cat: 1.0
//
Binder: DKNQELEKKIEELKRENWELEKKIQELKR [4H3414-bH]
Cat: 1.0
//
Binder: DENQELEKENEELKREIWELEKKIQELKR [4H1222-bH]
Cat: 0.0
//
Binder: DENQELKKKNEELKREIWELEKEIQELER [4H1985-bH]
Cat: 0.0
//
Binder: DKNQELEKEIEELKRKIWELEKENQELKR [4H3172-bH]
Cat: 0.0

Please look at the following binder next.
[in] Confirm or reject: interaction score of DKNQELKKEIEELERKIWELKKKNQELER [4H3631-bH] lies strictly below -0.2
[out] 0.0
